# target_desc: T1, monkey MSLN on HEK293T-monkey MSLN recombinant cells (monkey)
# T1 construct: Full-length precursor as transfected; processing on the cell is not described; also called HEK293-monkey MSLN
# T1 chain: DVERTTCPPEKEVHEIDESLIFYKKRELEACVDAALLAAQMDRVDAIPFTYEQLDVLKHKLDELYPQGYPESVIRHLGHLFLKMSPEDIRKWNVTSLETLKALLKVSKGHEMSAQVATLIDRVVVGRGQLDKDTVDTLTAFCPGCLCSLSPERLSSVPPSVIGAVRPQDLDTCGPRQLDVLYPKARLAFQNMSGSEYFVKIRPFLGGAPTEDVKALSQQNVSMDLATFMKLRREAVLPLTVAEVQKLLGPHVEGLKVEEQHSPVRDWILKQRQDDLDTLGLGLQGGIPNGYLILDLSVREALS
# test_name: FACS, HEK293T-monkey MSLN cells
property_label: Maximum_MFI (MFI)
# value in MFI; strip the unit string

query: Could you tell me which Maximum_MFI is on file for F2.39.3-H9 (scFv, not shown: small tags and cut ends, also called S009-F2.39.3 humanized antibody VH3 + VL1) scFv: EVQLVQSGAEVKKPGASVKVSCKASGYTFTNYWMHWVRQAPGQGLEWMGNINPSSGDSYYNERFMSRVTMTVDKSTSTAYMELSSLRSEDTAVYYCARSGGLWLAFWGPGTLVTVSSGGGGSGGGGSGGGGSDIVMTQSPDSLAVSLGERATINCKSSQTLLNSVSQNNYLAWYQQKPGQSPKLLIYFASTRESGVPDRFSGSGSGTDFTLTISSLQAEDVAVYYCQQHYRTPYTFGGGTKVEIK ?
result: 23300
